Cited source for all entries: PubChem BioAssay (EPA / NIEHS)

- PROTOCOL_DESCRIPTION: ATG_PXRE_CIS: Attagene CIS-FACTORIAL HepG2 Assay for human Pregnane X Receptor Element (PXRE) (AID 2282957)
- RUN_PARAMETERS: HepG2 Attagene CIS-FACTORIAL PXRE reporter, mRNA; actives raise or lower the signal
- Experimental: ATG_CIS is a cell-based, multiplexed-readout assay that uses HepG2, a human liver cell line, with measurements taken at 24 hours after chemical dosing in a 24-well plate.ATG_PXRE_CIS is one of 52 assay component(s) measured or calculated from the ATG_CIS assay. […] This assay endpoint, ATG_PXRE_CIS, was analyzed with bidirectional fitting relative to DMSO as the negative control and baseline of activity. […]
Calls of active or inactive are those of the source. Rule for the calls: active = hit-call score of the fitted dose curve at least 0.9, where 1 is the maximum; inactive = score below 0.9.
In this exercise, the only acceptable responses are y for active, n for inactive

Below, 8 compounds whose answers are already recorded.
{"columns": ["COMPOUND", "QUALITATIVE_LABEL"],
 "data": [
  ["CCCCOC(=O)COC(=O)c1ccccc1C(=O)OCCCC", "y"],
  ["COCC(=O)N(c1c(C)cccc1C)[C@H](C)C(=O)OC", "y"],
  ["Clc1cnc(Oc2ccc(Oc3ncc(Cl)cc3Cl)cc2)c(Cl)c1", "y"],
  ["c1ccc(-c2cccc(-c3ccccc3)c2)cc1", "y"],
  ["Clc1cc(C(Cl)(Cl)Cl)cnc1Cl", "y"],
  ["C[C@H]1C(=O)O[C@@H]2CCN3CC=C(COC(=O)[C@](C)(O)[C@]1(C)O)[C@H]23", "n"],
  ["CCCCC(CC)COC(=O)Cl (centres undefined)", "n"],
  ["C=CCOC(F)(C(F)(F)F)C(F)(F)F", "n"]
]}

Next up:
(Q) Which outcome did this test record for the compound Oc1ccc(Cc2ccc(O)cc2)cc1 ?
(A) y
